Read-out: Macrophage colony-stimulating factor (MCSF), CSF1 (gene 1435)
Experiment: BSK_hDFCGF_MCSF: BioMAP Diversity Plus: hDFCGF Assay for Macrophage colony-stimulating factor (MCSF) Biomarker Activity (AID 2283060)
Conditions: primary human foreskin fibroblasts; actives raise or lower the signal
Description: BSK_hDFCGF is a cell-based, multiplexed-readout assay that uses foreskin fibroblast, a human skin primary cell, with measurements taken at 24 hours after chemical dosing in a 96-well plate.BSK_hDFCGF_MCSF is an assay component measured in the BSK_hDFCGF assay. It measures M-CSF antibody related to regulation of gene expression using ELISA technology.Data from the assay component BSK_hDFCGF_MCSF was analyzed into 1 assay endpoint. […]
The source made the active and inactive calls. The calls were made as follows: active = hit-call score of the fitted dose curve at least 0.9, where 1 is the maximum; inactive = score below 0.9.
API: response.call in 1 (yes) (active), 0 (no) (inactive)

Solved entries (count: 3):
{"columns": ["compound", "group"],
 "data": [
  ["CCOC(=O)CC(O)(CC(=O)OCC)C(=O)OCC", "0 (no)"],
  ["FC(F)(I)C(F)(F)C(F)(F)C(F)(F)C(F)(F)C(F)(F)I", "1 (yes)"],
  ["CC[C@H](C)[C@@H](C(=O)O)n1sc2ccccc2c1=O", "0 (no)"]
]}

Please state the recorded outcome for this compound: CCCCCCCCCCCCN1CCCC1=O
1 (yes)

Next up: CC(C)(C)CC(C)(C)c1ccc(O)c(-n2nc3ccccc3n2)c1
1 (yes)

Would you kindly repeat that for COc1ccc([N+](=O)[O-])cc1N ?
0 (no)

Would you kindly repeat that for CCCCC(CC)COC(=O)CCCCC(=O)OCC(CC)CCCC (stereo not drawn) ?
0 (no)

Okay, and Cc1cc(C)c(O)c(C)c1 ?
0 (no)

Would you mind doing CCCCCCCCOC(=O)CCCCCCCCC(=O)OCCCCCCCC as well?
0 (no)

---

target: Heat shock factor protein 1 (Homo sapiens) (UniProt Q00613); assay: ATG_HSE_CIS: Attagene CIS-FACTORIAL HepG2 Assay for human Heat Shock Transcription Factor 1 (HSE) (AID 2282953); conditions: HepG2 HSE cis-reporter, Attagene RNA transcription; actives raise or lower the signal
Sequence (Q00613 whole entry, looked up): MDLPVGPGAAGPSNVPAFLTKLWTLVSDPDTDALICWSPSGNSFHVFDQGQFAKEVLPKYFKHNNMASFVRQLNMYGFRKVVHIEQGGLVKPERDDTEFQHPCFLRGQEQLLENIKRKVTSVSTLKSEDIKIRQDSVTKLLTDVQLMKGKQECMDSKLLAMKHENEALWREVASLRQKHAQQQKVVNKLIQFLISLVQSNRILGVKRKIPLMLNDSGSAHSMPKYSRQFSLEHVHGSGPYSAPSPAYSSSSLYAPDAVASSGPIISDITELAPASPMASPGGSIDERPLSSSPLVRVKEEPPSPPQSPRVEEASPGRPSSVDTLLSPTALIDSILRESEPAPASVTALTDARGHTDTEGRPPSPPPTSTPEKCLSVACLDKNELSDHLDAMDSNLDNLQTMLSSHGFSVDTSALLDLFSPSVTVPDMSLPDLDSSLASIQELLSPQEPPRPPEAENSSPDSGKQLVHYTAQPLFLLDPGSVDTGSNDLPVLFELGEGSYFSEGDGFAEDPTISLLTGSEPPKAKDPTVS
Activity calls are given as the source filed them. The calls were made as follows: active = hit-call score of the fitted dose curve at least 0.9, where 1 is the maximum; inactive = score below 0.9.
measurement kind: outcome

{"columns": ["compound", "outcome"],
 "data": [
  ["CC(C)(C)c1cc(C(C)(C)C)c(O)c(C(C)(C)C)c1", "inactive"],
  ["CCc1ccc(CCOc2ccc(CC3SC(=O)NC3=O)cc2)nc1 (stereo unspecified)", "inactive"],
  ["C#C[C@]1(O)CC[C@H]2[C@@H]3CCC4=CC(=O)CC[C@@H]4[C@H]3CC[C@@]21C", "inactive"],
  ["CCCCCCCCCCCCc1ccccc1S(=O)(=O)O", "inactive"],
  ["c1ccc2c(c1)Cc1ccccc1-2", "inactive"]
]}

Please turn your attention to the following entry.
Sample CCCCC[C@H](O)CC(=O)CCc1ccc(O)c(OC)c1 — what was its outcome?
inactive

---

tested on: DIO1 (gene 1733); experiment: CCTE_GLTED_hDIO1: CCTE's human Deiodinase 1 (DIO1) Inhibition Assay, Great Lakes Toxicology and Ecology Division (GLTED) Lab (AID 2283987);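 also: isolated human DIO1 enzyme in a cell-free setup rather than cells; enzyme activity read as free iodide liberated from substrate via Sandell-Kolthoff colorimetry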
Results filed as inconclusive are left out. Active and inactive are the calls of the source. The calls were made as follows: active = hit-call score of the fitted dose curve at least 0.9, where 1 is the maximum; inconclusive = response in the unintended direction; inactive = score below 0.9.
measurement kind: AC50

Some molecules with recorded AC50:
{"columns": ["chemical structure", "target system", "AC50"],
 "data": [
  ["Cc1oc(-c2ccccc2)nc1CCOc1ccc(C[C@H](Nc2ccccc2C(=O)c2ccccc2)C(=O)O)cc1", "DIO1 (gene 1733)", "72.1 µM (active)"],
  ["ClC1=C(Cl)C(Cl)(Cl)C(Cl)=C1Cl", "DIO1 (gene 1733)", "78.5 µM (active)"],
  ["CC(C)(C)c1ccc(O)c(C(C)(C)C)c1", "DIO1 (gene 1733)", "108 µM (active)"]
]}

For CCCCCCCCCCCCc1ccccc1S(=O)(=O)O , what is its reported AC50?
96.3 µM (active)

Also check CCCCCCCCCCCCN1CCCC1=O
159 µM (active)

---

target: Nuclear receptor subfamily 1 group I member 2 (Homo sapiens) (UniProt O75469); test: NVS_NR_hPXR: NovaScreen (NVS) Nuclear Receptor Binding Assay for human Pregnane X Receptor (PXR) (AID 2283365);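 also: a drop in FRET signal versus DMSO baseline means the compound binds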
Sequence (O75469 whole entry, looked up): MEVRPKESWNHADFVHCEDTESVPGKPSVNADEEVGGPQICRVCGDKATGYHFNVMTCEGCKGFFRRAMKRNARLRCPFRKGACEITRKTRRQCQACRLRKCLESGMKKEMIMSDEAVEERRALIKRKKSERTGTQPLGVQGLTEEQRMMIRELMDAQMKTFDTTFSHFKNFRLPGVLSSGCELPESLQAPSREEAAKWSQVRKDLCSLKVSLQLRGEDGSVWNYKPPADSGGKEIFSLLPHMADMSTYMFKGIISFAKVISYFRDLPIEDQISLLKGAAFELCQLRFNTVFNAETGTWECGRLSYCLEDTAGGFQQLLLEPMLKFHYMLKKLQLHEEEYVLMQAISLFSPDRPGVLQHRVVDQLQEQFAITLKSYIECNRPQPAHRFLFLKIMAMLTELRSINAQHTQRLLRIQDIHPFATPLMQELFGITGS
Inconclusive results are not listed. The source made the active and inactive calls. How the source made its calls: active means hit-call score of the fitted dose curve at least 0.9, where 1 is the maximum; inconclusive means response in the unintended direction; inactive means score below 0.9.
Could you please pick one outcome from this set? 1 (active), 0 (inactive)

{"columns": ["compound", "group"],
 "data": [
  ["CC[C@H](C)[C@@H](C(=O)O)n1sc2ccccc2c1=O", 0]
]}

Name the outcome recorded for CC#C[C@]1(O)CC[C@H]2[C@@H]3CCC4=CC(=O)CCC4=C3[C@@H](c3ccc(N(C)C)cc3)C[C@@]21C in the assay.
0

Try the compound CC[C@H](c1ccc(O)cc1)[C@@H](CC)c1ccc(O)cc1
0

Input ClC1=C(Cl)C(Cl)(Cl)C(Cl)=C1Cl
1

Can you check CCCCCCCC(=O)O next?
0

Then what about the compound COCC(C)OCC(C)O (stereo unspecified) ?
0

---

read-out: Interleukin-1 alpha (IL1a), IL1A (gene 3552); test: BSK_LPS_IL1a: BioMAP Diversity Plus: LPS Assay for Interleukin-1 alpha (IL1a) Biomarker Activity (AID 2283080); settings: primary human HUVEC with PBMC; actives raise or lower the signal
Calls of active or inactive are those of the source. How the source made its calls: active means hit-call score of the fitted dose curve at least 0.9, where 1 is the maximum; inactive means score below 0.9.
measurement kind: AC50

Examples from the recorded data:
{"columns": ["molecule", "AC50"],
 "data": [
  ["CCc1ccc(CCOc2ccc(CC3SC(=O)NC3=O)cc2)nc1 (stereo unspecified)", "inactive"],
  ["CCCCOCCO", "inactive"],
  ["C#C[C@]1(O)CC[C@H]2[C@@H]3CCC4=CC(=O)CC[C@@H]4[C@H]3CC[C@@]21C", "inactive"],
  ["CCc1nn(C2CCCCC2)c2cc(C3(C#N)CCC(C(=O)O)CC3)ccc12 (stereo unspecified)", "1150 nM (active)"],
  ["CN(C)C=O", "inactive"]
]}

Pending molecule:
# get_value(readout='AC50', item= CC(C)CCCCCCOC(=O)CCCCC(=O)OCCCCCCC(C)C )
inactive

---

read-out: CYP4A11 (gene 1579); assay: LTEA_HepaRG_CYP4A11: Life Technologies and Expression Analysis (LTEA) Assay for CYP4A11 using HepaRG (AID 2283486); conditions: mRNA level, 48 h; actives raise or lower the signal
The source made the active and inactive calls. How the source made its calls: active means hit-call score of the fitted dose curve at least 0.9, where 1 is the maximum; inactive means score below 0.9.
Lab note: assign the record to one of active, inactive

Example cases with answers are listed next.
{"columns": ["compound", "group"],
 "data": [
  ["CN(C)C=O", "inactive"],
  ["CC[C@H](C)[C@@H](C(=O)O)n1sc2ccccc2c1=O", "inactive"],
  ["O=[N+]([O-])c1ccc(O)cc1", "inactive"]
]}

Each compound tested received a call. Report the one for N#C[C@@H]1CC(F)(F)CN1C(=O)CNC1CC2CCC(C1)N2c1ncccn1 (stereo not given in full) .
inactive

Another compound: CCCCCCCCCCCCN1CCCC1=O
inactive

---

molecular target: guinea pig Opioid, Kappa 1 Receptor (OpiateK), OPRK1 (gene 100135587) (UniProt P41144); assay: NVS_GPCR_gOpiateK: NovaScreen (NVS) G Protein-Coupled Receptor Assay for guinea pig Opioid, Kappa 1 Receptor (OpiateK) (AID 2283252);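 also: radioligand displacement from kappa opioid receptor in guinea pig cerebellar membranes; active means reduced radioligand binding relative to DMSO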
Sequence (P41144 whole entry, looked up): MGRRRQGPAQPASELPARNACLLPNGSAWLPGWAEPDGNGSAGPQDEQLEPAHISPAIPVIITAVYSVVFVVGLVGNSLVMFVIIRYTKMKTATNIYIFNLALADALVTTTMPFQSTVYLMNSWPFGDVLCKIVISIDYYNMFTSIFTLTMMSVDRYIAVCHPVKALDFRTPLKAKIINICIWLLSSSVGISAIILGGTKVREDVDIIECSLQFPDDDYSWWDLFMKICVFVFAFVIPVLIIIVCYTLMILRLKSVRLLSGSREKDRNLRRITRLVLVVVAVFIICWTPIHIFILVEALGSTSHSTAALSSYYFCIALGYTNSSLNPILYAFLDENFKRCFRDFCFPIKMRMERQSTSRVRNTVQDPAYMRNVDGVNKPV
Results filed as inconclusive are left out. Calls of active or inactive are those of the source. Rule for the calls: active = hit-call score of the fitted dose curve at least 0.9, where 1 is the maximum; inconclusive = response in the unintended direction; inactive = score below 0.9.

{"columns": ["chemical structure", "target system", "AC50"],
 "data": [
  ["CC[C@H](c1ccc(O)cc1)[C@@H](CC)c1ccc(O)cc1", "guinea pig Opioid, Kappa 1 Receptor (OpiateK), OPRK1 (gene 100135587) (UniProt P41144)", "inactive"],
  ["CCCCCCCC(=O)O", "guinea pig Opioid, Kappa 1 Receptor (OpiateK), OPRK1 (gene 100135587) (UniProt P41144)", "inactive"],
  ["CCN(CC)CCNc1ccc(CNC=O)c2sc3ccc(OC)cc3c(=O)c12", "guinea pig Opioid, Kappa 1 Receptor (OpiateK), OPRK1 (gene 100135587) (UniProt P41144)", "25 µM (active)"],
  ["CC[C@H](C)[C@@H](C(=O)O)n1sc2ccccc2c1=O", "guinea pig Opioid, Kappa 1 Receptor (OpiateK), OPRK1 (gene 100135587) (UniProt P41144)", "12.7 µM (active)"]
]}

---

molecular target: human Sirtuin 2 (SIRT2), SIRT2 (gene 22933) (UniProt Q8IXJ6); assay: NVS_ENZ_hSIRT2: NovaScreen (NVS) Enzymatic Assay for human Sirtuin 2 (SIRT2) (AID 2283217)
Sequence (Q8IXJ6 whole entry, looked up): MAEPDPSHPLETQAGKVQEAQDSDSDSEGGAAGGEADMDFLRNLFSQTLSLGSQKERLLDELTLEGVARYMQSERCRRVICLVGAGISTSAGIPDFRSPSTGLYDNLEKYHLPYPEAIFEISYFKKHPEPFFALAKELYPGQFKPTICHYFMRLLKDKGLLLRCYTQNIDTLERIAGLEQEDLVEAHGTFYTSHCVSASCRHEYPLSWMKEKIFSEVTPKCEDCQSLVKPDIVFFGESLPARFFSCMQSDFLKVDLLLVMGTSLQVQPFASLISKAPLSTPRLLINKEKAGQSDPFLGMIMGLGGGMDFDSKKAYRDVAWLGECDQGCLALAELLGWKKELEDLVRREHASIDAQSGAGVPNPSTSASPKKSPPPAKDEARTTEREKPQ
Inconclusive results are not listed. The source made the active and inactive calls. How the source made its calls: active means hit-call score of the fitted dose curve at least 0.9, where 1 is the maximum; inconclusive means response in the unintended direction; inactive means score below 0.9.
I would appreciate it if you answered using one of these outcomes: active, inactive

{"columns": ["compound", "target system", "group"],
 "data": [
  ["Cc1oc(-c2ccccc2)nc1CCOc1ccc(C[C@H](Nc2ccccc2C(=O)c2ccccc2)C(=O)O)cc1", "human Sirtuin 2 (SIRT2), SIRT2 (gene 22933) (UniProt Q8IXJ6)", "active"]
]}

Hi, do you know how CCCCOCCO came out in this test?
inactive

Query COCC(C)OCC(C)O (stereo unspecified) next
inactive

Next entry: CC(C)(C)c1cccc(C(C)(C)C)c1O
inactive

Let us now turn to CCCCCCCC(=O)O
inactive

Same for CCN(CC)CCNc1ccc(CNC=O)c2sc3ccc(OC)cc3c(=O)c12
inactive
